experiment: solvent given as SMILES; details: in CC#N
Cut-off 400 nm on absorption maximum, inclusive. At or above means t; below means f.

* Oc1ccc2ccccc2c1/C=N/c1cc2nc3ccccc3nc2cc1/N=C/c1c(O)ccc2ccccc12 | t
* COc1ccc(-n2nc(C#N)c(N3CCCCC3)n2)cc1 | f
* CN(C)c1ccc(C(=O)Nc2cccc(Br)c2)cc1 | f

Please look at the following molecule next.
Ask: Check if absorption maximum >= 400 nm (inclusive). Item: CC(C)(C)c1ccc(C2=C(c3ccc(C(C)(C)C)cc3)C(c3ccc(C(C)(C)C)cc3)=[N+]3C2=C(c2ccccc2)c2c(-c4ccc(C(C)(C)C)cc4)c(-c4ccc(C(C)(C)C)cc4)c(-c4ccc(C(C)(C)C)cc4)n2[B-]3(F)F)cc1
Reply: t
